target: CRTH2 receptor (hCRTH2) (Homo sapiens, UniProt Q9Y5Y4); construct: expressed in transfected cells; host or cells: HEK cells (HEK-hCRTH2 cell line), membranes; test: Radioligand binding assay ([3H]PGD2 competition, membranes of HEK-hCRTH2 cell line); conditions: 3.0 nM [3H]PGD2, HEK-hCRTH2 membranes, 60 min, room temperature; read-out: Ki
Sequence (Q9Y5Y4 whole entry): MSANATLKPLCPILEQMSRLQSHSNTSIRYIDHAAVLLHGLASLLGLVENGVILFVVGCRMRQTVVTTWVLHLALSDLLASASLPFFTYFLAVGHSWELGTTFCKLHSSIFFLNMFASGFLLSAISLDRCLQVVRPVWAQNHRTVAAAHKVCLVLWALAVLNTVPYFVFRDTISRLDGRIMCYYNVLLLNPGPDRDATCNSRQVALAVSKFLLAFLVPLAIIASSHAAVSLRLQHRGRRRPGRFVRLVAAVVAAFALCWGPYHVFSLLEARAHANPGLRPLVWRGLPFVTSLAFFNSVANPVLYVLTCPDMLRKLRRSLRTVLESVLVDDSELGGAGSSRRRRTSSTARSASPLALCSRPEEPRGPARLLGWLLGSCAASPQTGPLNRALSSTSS
assay_endpoint: Ki

O=C(O)C1CC(Cc2nc3cc(-c4cc(Cc5ccc(F)cc5)on4)ccc3c(=O)n2-c2ccc(F)cc2)C1 (stereo not shown) ... 10 to 50 nM
C[C@]1(c2nc3cc(F)c(F)cc3[nH]2)CC(c2ccc3c(=O)n(-c4ccc(F)cc4)c(CCCCC(=O)O)nc3c2)=NO1 ... ≤ 10 nM
CCCC1(c2ccccc2)CC(c2ccc3c(=O)n(-c4ccc(F)cc4)c(CCCCC(=O)O)nc3c2)=NO1 (stereo not shown) ... ≤ 10 nM
O=C(O)CCCCc1nc2cc(-c3cc(CNS(=O)(=O)c4ccc(F)c(F)c4)on3)ccc2c(=O)n1-c1ccc(F)cc1 [Example 24P] ... ≤ 10 nM
O=C(O)CCCCc1nc2cc(-c3noc(CCc4ccc(F)cc4)n3)ccc2c(=O)n1-c1ccc(F)cc1 ... ≤ 10 nM

Input line: Provide one value: measured Ki of "C[C@@]1(C(=O)NCc2ccccc2)CC(c2ccc3c(=O)n(-c4ccc(F)cc4)c(CCCCC(=O)O)nc3c2)=NO1"
Output line: 10 to 50 nM

Input line: Provide one value: measured Ki of O=C(O)CCCCc1nc2cc(C3=NOC(c4ccncc4)C3)ccc2c(=O)n1-c1ccc(Cl)cc1 (stereo not shown) [Example 15M]
Output line: ≤ 10 nM
